assay_system: SB10 transposase (synthetic Sleeping Beauty transposon)
method: MST; nonspecific, monophasic; Full-length MST: 50 mM Tris pH 7.5, 5 mM MgCl2, 300 mM NaCl, 2% glycerol, 50 mM Arg-Glu, 1 mM TCEP, 0.1% Triton X-100, 0.1 mg/ml BSA, 30 nM Cy5-DNA, room temp
assay_conditions: protein: recombinant; tags: Ni-NTA purified; label: Cy5 (5' forward strand)
assay_metric: Kd (nM)
// units = nM; emit number, no label

INPUT: Bench note: what Kd did NS1 (dsDNA) DNA 1: ACCTTCCTCCGCAATACTCCCCCAGGT DNA 2: ACCTGGGGGAGTATTGCGGAGGAAGGT show?
OUTPUT: 2600
